EXPERIMENT_SUMMARY: clinical
ASSAY_CONDITIONS: human, in vivo, 35 mg/m2
MEASURED_QUANTITY: AUC (ng·h/mL)
The response must be a number in ng·h/mL with no trailing unit.

Data request: Return AUC (reported value) for this compound: "COc1ccc(/C=C\c2cc(OC)c(OC)c(OC)c2)cc1NC(=O)[C@@H](N)CO"
Data returned: 493

====

EXPERIMENT_SUMMARY: clinical
ASSAY_CONDITIONS: human, in vivo, 20 mg/m2
MEASURED_QUANTITY: AUC

Data request: Return AUC (reported value) for this compound: COc1ccc(/C=C\c2cc(OC)c(OC)c(OC)c2)cc1NC(=O)[C@@H](N)CO [ombrabulin]
Data returned: 353 ng·h/mL
